Target: T1, recombinant human CD55 (R&D Systems 2009-CD/CF) (human, UniProt P08174 35-353)
T1 construct: Bought recombinant protein coated on ELISA plates; also called decay-accelerating factor; DAF
T1 sequence (looked up): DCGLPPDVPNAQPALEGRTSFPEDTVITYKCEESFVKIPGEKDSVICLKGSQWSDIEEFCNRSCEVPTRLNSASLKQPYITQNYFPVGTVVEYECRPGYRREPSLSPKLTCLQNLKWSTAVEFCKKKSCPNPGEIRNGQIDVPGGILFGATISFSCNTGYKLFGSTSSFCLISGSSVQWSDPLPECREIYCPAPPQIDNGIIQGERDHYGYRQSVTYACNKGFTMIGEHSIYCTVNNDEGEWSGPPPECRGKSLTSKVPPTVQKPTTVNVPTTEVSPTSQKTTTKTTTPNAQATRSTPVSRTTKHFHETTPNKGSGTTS
Assay: phage ELISA, recombinant human CD55 coated, anti-M13-HRP; 4-1H phage clone as control
Attribute measured: binding result

EP-9B scFv clone displayed on phage (scFv, V domains shown, In the screening ELISA it stood as scFv on phage (pComb3x)) VH: EVQLVESGGGLVQPGGSLRLSCAASGFTFSDRGMVWVRQSPGKGLEWVSGISSSGRYTYYAPAVKGRATISRDNSKNTLYLQMNNLRAEDTAVYYCAKNAVAGGWHAAYIDAWGQGTTVTVSS VL: SYELTQPPSVSVSPGQTASITCSGGGGSYGWYQQKPGQSPVTVIYWNDKRPSGIPERFSGSKSGNTATLTISGTQAMDEADYYCGGWDSSTYAIFGGGTKLTVL = binds
